- experimentDescription: Effect of temperature on aqueous solubility
- settings: Milli-Q water, unbuffered, 50 °C, thermodynamic from solid
recordedEndpoint: solubility at 24 h

Looking for the measured solubility at 24 h of NCCCCCCCC(O)(P(=O)(O)O)P(=O)(O)O , can you help? 3450 µg/mL

* * *

- experimentDescription: Effect of pH on aqueous solubility
- settings: 21 °C, pH 3, aqueous buffer, thermodynamic from solid
recordedEndpoint: solubility at 30 min (µg/mL)
Report as a plain number; the unit µg/mL is understood.

Looking for the measured solubility at 30 min of NCCCCCC(O)(P(=O)(O)O)P(=O)(O)O [Compound 4, reference compound] , can you help? 2970
